test system: TK-10; assay: NCI tumour cell line growth inhibition, 48 h
Activity calls are given as the source filed them. Rule as the data show it: active = GI50 up to about 1.1 µM and inactive = higher.
assayReadout: GI50

Record excerpt, results attached:
| compound | measurementTarget | testValue |
| --- | --- | --- |
| O=C(O)c1cc(=O)c2c([nH]c3ccccc32)s1 | TK-10 | > 100 µM (inactive) |
| O=C(COc1ccc(Cl)cc1)N1N=C(c2ccc(Cl)cc2)CC1(O)c1ccccc1 (stereo not given) | TK-10 | 26.7 µM (inactive) |
| COc1cccc2c1C(=O)OC2c1cccc2ccccc12 (stereo not given) | TK-10 | > 73.3 µM (inactive) |
| CC1CCc2c(sc3ncnc(N/N=C/c4ccc(Cl)cc4)c23)C1 (stereo not given) | TK-10 | 38.2 µM (inactive) |

Quote GI50 reported for O=C1N/C(=N/N=C\c2ccccc2)N/C1=C/c1ccccc1 please.
38.5 µM (inactive)

---

tested on: HOP-18; test: NCI tumour cell line growth inhibition, 48 h
The source made the active and inactive calls. No stated cut-off is given here; in the data, active = GI50 up to about 1.1 µM and inactive = higher.
The reply should name one outcome from active, inactive

Would you please look over these solved cases?
| molecule | assignedCategory |
| --- | --- |
| N#CC(C(=O)/C(=N/Nc1nc(S)nn1N)C(C#N)c1ccccc1)c1ccccc1 (centres undefined) | active |
| Nc1ncc2c(n1)-c1ccccc1OC2 | inactive |
| C[P+]1(Cc2ccccc2)CCCC1 | inactive |
| N#CC(N)(C(=O)C(=O)NCCCNC(=O)C(=O)C(N)(C#N)c1ccc(Cl)cc1)c1ccc(Cl)cc1 (centres undefined) | inactive |
| CCC(C)COC(=O)c1ccc(/N=C\c2ccc(/C=N/c3ccc(C(=O)OCC(C)CC)cc3)cc2)cc1 (centres undefined) | inactive |

// outcome(item) with item = O=C(O)C1CCCCN1C(=O)c1ccccc1 (centres undefined)
inactive

// outcome(item) with item = Nc1nc2ncn(CC(O)COC(=O)c3ccccc3)c2c(=O)[nH]1 (centres undefined)
inactive

// outcome(item) with item = COc1cc([C@@H]2c3cc4c(c(O[C@@H]5O[C@H]6CO[C@@H](C)O[C@H]6[C@H](O)[C@@H]5O)c3C[C@H]3COC(=O)[C@@H]32)OCO4)cc(OC)c1O
inactive

// outcome(item) with item = O=Cc1cc(O)c(O)c(O)c1-c1c(C=O)cc(O)c(O)c1O
inactive

---

test system: LOX IMVI; test: NCI tumour cell line growth inhibition, 48 h
Active and inactive are the calls of the source. No stated cut-off is given here; in the data, active = GI50 up to about 1.1 µM and inactive = higher.
The reply should name one outcome from active, inactive

| molecule | assignedCategory |
| --- | --- |
| CCCC[C@H]1[C@@H](OCOc2ccccc2)COC(=O)N1[C@H](C)c1ccccc1 | inactive |
| Cc1ccc(Nc2nc3c(=O)n(C)c(=O)n(C)c3nc2Nc2ccc(C)cc2)cc1 | inactive |
| CC(=O)O[C@]12CCCCCCC1C1(O)C(O)CCC[C@H]12 (stereo not given in full) | inactive |
| COc1ccc([C@H]2[C@@H]3CCc4ccccc4C3=NN2C(N)=S)cc1OC | inactive |
| Cc1cccc2cc3ccc4ccccc4c3cc12 | inactive |

// outcome(item) with item = CC1(C)NC2C(=O)c3c([nH]c4ccccc34)[C@]3(C)CCC1CC23 (stereo not given in full)
inactive

// outcome(item) with item = CC1=CC2c3cccc4[nH]cc(c34)CC2N(C)C1 (stereo not given)
inactive

// outcome(item) with item = O=C1N/C(=N/N=C\c2ccccc2)N/C1=C/c1ccccc1
inactive

// outcome(item) with item = CC1(C)OC(=C(C#N)C#N)C(C#N)=C1/C=C/c1ccncc1
inactive

// outcome(item) with item = C=CCOc1ccccc1/N=N/C(C#N)=N\Nc1ccccc1OCC=C
inactive

// outcome(item) with item = CN1CCCN(C)C1c1cc([N+](=O)[O-])ccc1O
inactive

// outcome(item) with item = CN1c2ccccc2S(=O)(=O)n2c(COc3ccc(Cl)cc3)nnc21
inactive

// outcome(item) with item = CO/C(N)=C(C#N)/N=C/c1cccs1
inactive

// outcome(item) with item = COc1ccc(C2NCCc3c2[nH]c2ccccc32)cc1 (stereo not given)
inactive

// outcome(item) with item = CC1CCc2c(sc3ncnc(N/N=C/c4ccc(Cl)cc4)c23)C1 (stereo not given)
inactive
